- system tested: ErbB3 on cancer cells (UniProt P21860 20-1342, limits assumed)
- assay overview: cell-based or functional assay
value kind: Inhibition of ErbB3 phosphorylation, IC50 (HRG-stimulated MCF7 cells) (nM)
API: value field is a number in nM; no unit string.

INPUT: Check the records and state Inhibition of ErbB3 phosphorylation, IC50 (HRG-stimulated MCF7 cells) for 472M1 (antibody, V domains shown, IgG1 (Selexis 085 vector, CHO)) VH: EVQLLESGGGLVQPGGSLRLSCAASGFTFSWYDLSWVRQAPGKGLEWVSGISYDGGNTYYADSVKGRFTISRDNSKNTLYLQMNSLRAEDTAVYYCARDPSWCLQDLCYYADGMDVWGQGTLVTVSS VL: QSVLTQPPSASGTPGQRVTISCSGSSSNIGSNSVSWYQQLPGTAPKLLIYADSNRPSGVPDRFSGSKSGTSASLAISGLRSEDEADYYCGSWDYSLSGYVFGGGTKLTVLG
OUTPUT: 0.276
